# Format: physicochemical
# Test parameters: 1000 ppm water; C = cream
Attribute: % Separation, 1 h
The response must be a number in % with no trailing unit.

Sample records with % Separation, 1 h:
[[record]]
compound = "CCCCCCCCCCCCCCCCCC(=O)OC(CCCCCCCC(=O)[O-])C(CC)S(=O)(=O)[O-].[Na+].[Na+] (stereo not shown)"
readout_type = "% Separation, 1 h"
reported = 3.6

[[record]]
compound = "CCCCCCCCCCCC(=O)OC(CCCCCCCC(=O)[O-])C(CC)S(=O)(=O)[O-].[Na+].[Na+] (stereo not shown)"
readout_type = "% Separation, 1 h"
reported = 3

[[record]]
compound = "CCCCCCCCCC(=O)OC(CCCCCCCC(=O)OC)C(CCCCCCCC(=O)OC)S(=O)(=O)[O-].[Na+] (stereo not shown) [C18-64, DBE C10 FA (75:25) SLA]"
readout_type = "% Separation, 1 h"
reported = 3.7


// recorded % Separation, 1 h for CCCCCCCCCC(=O)OC(CCCCCCCC(=O)OC)C(CCCCCCCC(=O)OC)S(=O)(=O)[O-].[Na+] (stereo not shown) [C18-63, DBE C10 FA (60:40) SLA] : 3

// recorded % Separation, 1 h for CCCCCCCCCC(=O)OC(CCCCCCCC(=O)OC)CS(=O)(=O)[O-].[Na+] (stereo not shown) : 3.4

// recorded % Separation, 1 h for CCCCCCCCCCCC(=O)OC(CCCCCCCC(=O)OC)C(CC)S(=O)(=O)[O-].[Na+] (stereo not shown) : 3

// recorded % Separation, 1 h for C=CCCCCCCCC(=O)OC(CCCCCCCC(=O)[O-])CS(=O)(=O)[O-].[Na+].[Na+] (stereo not shown) : 2.5
